biological target: recombinant Cz (cruzain) (Trypanosoma cruzi); construct: Cz was expressed and purified as described in da Silva et al; made in house; assay: biochemical; conditions: IC50 Cz, mean of two experiments in triplicate (n = 6) ± SEM
PROPERTY_MEASURED: pIC50
Numbers only, as −log10 of the molar value.

In: Provide pIC50 value for the following compound: `C/C(=N\NC(N)=[Se])c1cccc([N+](=O)[O-])c1`
Out: 9.04

* * *

target: recombinant Cz (cruzain) (Trypanosoma cruzi, UniProt P25779); construct: Cz was expressed and purified as described in da Silva et al; made in house; test: biochemical; details: 10 µM
Sequence (P25779 123-337 limits assumed): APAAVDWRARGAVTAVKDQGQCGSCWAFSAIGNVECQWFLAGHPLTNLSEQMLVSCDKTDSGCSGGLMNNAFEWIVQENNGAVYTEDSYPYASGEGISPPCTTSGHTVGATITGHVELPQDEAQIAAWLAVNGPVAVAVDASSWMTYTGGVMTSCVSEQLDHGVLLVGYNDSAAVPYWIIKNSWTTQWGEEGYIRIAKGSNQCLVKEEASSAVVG
So I've got a bunch of compounds here, and I need their Cz inhibition (%) values.
Mention the unit after the number when you answer.

STRUCTURE_STRING: C/C(=N\Nc1nc(C)c[se]1)c1cccc(Cl)c1.Cl
TARGET_ENTITY: recombinant Cz (cruzain) (Trypanosoma cruzi, UniProt P25779)
MEASURED_RESULT: 102.55%

Please look at the items below and tell me Cz inhibition (%) for each one, in order.
1. C/C(=N\NC(N)=[Se])c1ccc(Br)cc1
2. C/C(=N\NC(N)=S)c1cccc(Cl)c1
3. C/C(=N\Nc1nc(C)c[se]1)c1cccc([N+](=O)[O-])c1.Cl

Out:
101.08%
100.00%
100.09%
